Below, each of the compounds is paired with its reported Retention value.
Tested on: Mus musculus
experimental_protocol: Compound was tested for cognitive activity by measuring retention for passive avoidance learning in mice at dose 10 mg/kg
Type: functional, organism-based
Set-up: dose 10 mg/kg
# do not omit the unit; it follows the number

Provide measured Retention value, entry: C1CCc2nnnn2CC1
65%

Tell me its Retention given NC1=NC(=O)C(c2ccccc2)O1 (stereo not drawn) as the entry.
70%

Read the entry CN(C)CCCN1c2ccccc2CCc2ccccc21 and write its reported Retention.
80%

====

The compounds listed here are annotated with their Retention.
System: Mus musculus
experimental_protocol: Retention for passive avoidance learning in mice at dose 5.0 mg/kg
Type: functional, organism-based
Set-up: dose 5 mg/kg
Be sure to follow the number with its unit.

In [3]: df
Out[3]:
             smiles_structure  result_type  assay_result
0        Cc1cncc(Oc2ccccc2)c1    Retention           70%
1         c1ccc(Oc2ccncc2)cc1    Retention           70%
2        CCOc1ccccc1Oc1cccnc1    Retention           70%
3        Fc1ccc(Oc2cccnc2)cc1    Retention           95%
4  [O-][n+]1cccc(Oc2cccnc2)c1    Retention           85%

Please give measured Retention of the following entry: Cc1ncccc1Oc1ccccc1N
65%

Retrieve Retention measured for O=[N+]([O-])c1ccccc1Oc1cccnc1 and print it.
60%

====

System: Mus musculus
experimental_protocol: Retention for passive avoidance learning in mice at dose 5.0 mg/kg
Type: functional, organism-based
Design: dose 5 mg/kg
Think of 80% as a floor: if Retention stands on it or above, it is TRUE; beneath it, FALSE.

Sample answers from the record:
                      smiles_structure  answer_label
0                  c1ccc(Oc2ccccn2)cc1         FALSE
1                   Cc1ccncc1Oc1ccccc1         FALSE
2                COc1cccc(Oc2cccnc2)c1         FALSE
3                 Fc1cccc(Oc2cccnc2)c1          TRUE
4  [O-][n+]1cccc(Oc2ccc[n+]([O-])c2)c1          TRUE
5       Cc1ncccc1Oc1ccccc1[N+](=O)[O-]          TRUE
6                Brc1ccc(Oc2cccnc2)cc1          TRUE
7           COC(=O)c1cccc(Oc2cccnc2)c1         FALSE

Please find the next compound below.
hey, is Retention for this one >= 80%? Brc1ccccc1Oc1cccnc1
FALSE

====

Test system: Mus musculus
experimental_protocol: Retention for passive avoidance learning in mice at dose 5.0 mg/kg
Assay type: functional, organism-based
Design: dose 5 mg/kg
result_type: Retention
Phrase the answer as number then unit, nothing more needed.

Some solved entries appear below for comparison.
>>> print(df.to_string())
        smiles_structure  assay_result
0  Clc1ccc(Oc2cccnc2)cc1           80%
1     Nc1ccccc1Oc1cccnc1           80%

Query compound follows.
Using the record for COc1ccc(Oc2cccnc2)cc1 , state its measured Retention.
78%
